Reference for the values: PubChem BioAssay (NCATS)

TESTED SYSTEM: Glucocorticoid receptor (Homo sapiens)
EXPERIMENT: GR-GFP Redistribution (AID 450); also: potency is read from the fitted curve at half-maximal effect
EXPERIMENTAL SETUP: U2OS GR-GFP nuclear translocation, laser cytometry, 2 h
The source made the active and inactive calls.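 The calls were made as follows: active = compounds whose dose series gives a full or clear partial fitted curve of increased nuclear translocation; inconclusive = weak partial curve or effect only at the top dose; inactive = no dose-dependent translocation response.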
Pick one: yes (1) for active, no (0) for inactive

Worked cases, answers included:
C[C@@H](NCc1cc(Br)cc2[nH]c(=O)c(=O)[nH]c12)P(=O)(O)O	yes (1)
CNC(=O)[C@H]1O[C@H](n2cnc3c(NCc4cccc(I)c4)nc(Cl)nc32)[C@@H](O)[C@@H]1O	no (0)
NC1(C(=O)O)CC(C(=O)O)C1 (stereo unspecified)	no (0)
O=C1c2ccccc2CC[C@H]1CNCCc1ccc(O)cc1	no (0)
COc1cc2c(cc1C(F)(F)F)N(C(=O)Nc1cc(F)cc(-c3cccnc3)c1)CC2	no (0)

Outcome logged for `N#Cc1ccccc1OC[C@H](O)CNCCNC(=O)Nc1ccccc1` in this assay:
no (0)

How was `N[C@@]1(C(=O)O)CN[C@H](C(=O)O)C1` classified in this test?
no (0)

Given `O=C(NC1CCN(Cc2ccccc2)CC1)c1ccc(I)cc1` , state the outcome it received in this test.
no (0)

Assay result, entry `O=C(c1c(O)c2ccc(Cl)cc2[nH]c1=O)C1CC1` — outcome?
no (0)

Field: outcome | Entry: `CC#CCOC(=O)C1=CCCN(C)C1`
no (0)

What did this assay record as the result for `CC[C@@](N)(C(=O)O)c1ccc(C(=O)O)cc1` ?
no (0)

---

System: CP201
EXPERIMENT: qHTS profiling for inhibitors of Plasmodium falciparum proliferation (AID 504749); also: nearly all actives have a fitted effect of over 60% in size; also: potency is read from the fitted curve at half-maximal effect
EXPERIMENTAL SETUP: P. falciparum in erythrocytes, SYBR Green DNA, 72 h; series mostly up to 28.7 µM
Inconclusive results are not listed. The source made the active and inactive calls. The call rests on the fitted dose curve; in most records, active means well fitted inhibition curve with a large enough effect; inconclusive means small, poorly fitted or top-dose-only effect; inactive means flat fitted curve, though single readings scatter.
VALUE KIND: Potency

See these solved cases before continuing.
CC(=O)[C@H]1CC[C@H]2C3CC=C4C[C@@H](O)CC[C@]4(C)C3CC[C@]12C (stereo partly drawn)	inactive
COC(=O)[C@@H]1[C@@H]2C[C@H]3c4[nH]c5ccccc5c4CCN3C[C@@H]2CC[C@@H]1O	inactive
CCCCC(=O)N(Cc1ccc(-c2ccccc2-c2nn[nH]n2)cc1)C(C(=O)O)C(C)C (stereo not drawn)	inactive
CC(C)C[C@@H](NC(=O)[C@H](Cc1ccccc1)NC(=O)c1cnccn1)B(O)O	0.601 µM (active)
CC(C)(O)c1ccccc1CC[C@H](SCC1(CC(=O)O)CC1)c1cccc(/C=C/c2ccc3ccc(Cl)cc3n2)c1	inactive
O=C(CC1NCCC[C@H]1O)Cn1cnc2cc(Br)c(Cl)cc2c1=O (stereo partly drawn)	3.38 µM (active)
CCOC(=O)C(CCc1ccccc1)NC1CCc2ccccc2N(CC(=O)O)C1=O (stereo not drawn)	inactive

Proceed to the following item.
Tell me the measured Potency of `C[C@@H](C(=O)O)c1ccc(-c2ccccc2)c(F)c1` , please.
inactive

---

EXPERIMENT: qHTS for Inhibitors of Plasmodium falciparum (GB4) proliferation (AID 504315); also: nearly all actives have a fitted effect of over 50% in size; also: potency is read from the fitted curve at half-maximal effect
EXPERIMENTAL SETUP: P. falciparum GB4 in erythrocytes, SYBR Green DNA, 72 h; series mostly up to 6.7 µM
Results filed as inconclusive are left out. Active and inactive are the calls of the source. Calls come from the whole dose curve; as a rule, active = well fitted inhibition curve with a large enough effect; inconclusive = small, poorly fitted or top-dose-only effect, or effect the other way; inactive = flat fitted curve, though single readings scatter.
VALUE KIND: Potency

COc1cccc2c1[C@H](C=Cc1ccccc1)[C@@H]([C@H](O)COC(C)=O)OC2	inactive
OC[C@H]1O[C@H](C#Cc2ccc(F)cc2F)C=C[C@H]1O	inactive
COc1ccc2c(c1)C(=O)[C@@H](OC(=O)NS(=O)(=O)c1ccc(F)cc1)[C@H](c1ccc(OC)c(Br)c1)O2	inactive
CCCCc1cc2c(cn1)=C(OC(=O)CCC(=O)OC)C(C)(OC(=O)CC)C(=O)C=2 (centres undefined)	1.69 µM (active)
CC(CCN1CCCc2nc(C)c(C)cc21)=NOC[C@@H](O)COCc1ccco1	inactive

Which Potency value belongs to `COC(=O)C1=C(C(=O)OC)[C@@H]2N(C)c3ccc(OC)cc3[C@@]23C[C@@H](C(=O)OC)N(C(=O)NCCBr)C3=N1` ?
2.13 µM (active)

// returns reported Potency for input COC(=O)CC1c2ccccc2C=C(C2CC2)N1C(=O)OC (centres undefined)
inactive

Which Potency is reported for this compound? COC(=O)NC(CCc1ccccc1)C(C(=O)OC)C(=O)OC (centres undefined)
inactive

Looking for the measured Potency of `Cc1noc(C)c1S(=O)(=O)N1CCc2nc(COc3ccccc3)c3c(c2C1)CO[C@@H](C)C3` , can you help?
inactive

---

Test system: JCK
EXPERIMENT: qHTS profiling for inhibitors of Plasmodium falciparum proliferation (AID 504749); also: nearly all actives have a fitted effect of over 60% in size
EXPERIMENTAL SETUP: P. falciparum in erythrocytes, SYBR Green DNA, 72 h; series mostly up to 28.7 µM
Inconclusive results are not listed. Activity calls are given as the source filed them. Calls come from the whole dose curve; as a rule, active = well fitted inhibition curve with a large enough effect; inconclusive = small, poorly fitted or top-dose-only effect; inactive = flat fitted curve, though single readings scatter.
Write down one outcome, taken from Yes for active, No for inactive

O=C(CC1NCCC[C@H]1O)Cn1cnc2cc(Br)c(Cl)cc2c1=O (stereo not given in full)	Yes
CC(C)(O)c1ccccc1CC[C@H](SCC1(CC(=O)O)CC1)c1cccc(/C=C/c2ccc3ccc(Cl)cc3n2)c1	No

Per the records of this test, what outcome belongs to `C[C@@H](C(=O)O)c1ccc(-c2ccccc2)c(F)c1` ?
No

Hi, do you know how CC(=O)[C@H]1CC[C@H]2C3CC=C4C[C@@H](O)CC[C@]4(C)C3CC[C@]12C (stereo not given in full) came out in this test?
No

# lookup: test call for C/C=C1\C2C=C(C)CC1(N)c1ccc(=O)[nH]c1C2 (stereo not given)
No

---

Test system: JEG-3
EXPERIMENT: Primary qHTS to identify gynecologic anti-cancer compounds using libraries of approved drugs and bioactive compounds (AID 1345084); also: nearly all actives have a fitted effect of over 55% in size
EXPERIMENTAL SETUP: Gynecologic cancer cell panel viability, ATPlite luminescence, 48 h; series mostly up to 57.5 µM
Results filed as inconclusive are left out. Active and inactive are the calls of the source. Calls follow the shape of the dose curve; as a rule, active = well fitted cell-killing curve with a large enough effect; inconclusive = small, poorly fitted or top-dose-only effect, or effect the other way; inactive = flat fitted curve, though single readings scatter.
Your response should consist of one outcome taken from active, inactive

Identify the outcome logged in this assay for the compound shown: `CS(=O)(=O)c1ccc(-c2cn3ccccc3n2)cc1`
active

GET /call?item= CCCCC(=O)N(Cc1ccc(-c2ccccc2-c2nn[nH]n2)cc1)C(C(=O)O)C(C)C (stereo not given) returns the recorded outcome of this test.
inactive

Each compound tested received a call. Report the one for `Cn1cc(-c2cnc3ccc4ccc(CS(=O)(=O)NCc5ccccn5)cc4c(=O)c3c2)cn1` .
inactive

// param item: `CN(CC(=O)N(Cc1ccc(C2CCCCC2)cc1)c1ccc(C(=O)O)cc1)S(=O)(=O)c1c(F)c(F)c(F)c(F)c1F` ; yields the recorded call
active

Which outcome was entered for the compound `CN(C)CCCNc1nc(CN2CCN(C(c3ccc(Cl)cc3)c3ccc(Cl)cc3)CC2)nc2ccccc12` in this test?
inactive

---

Tested on: SKOV3
EXPERIMENT: Primary qHTS to identify gynecologic anti-cancer compounds using libraries of approved drugs and bioactive compounds (AID 1345084); also: nearly all actives have a fitted effect of over 55% in size
EXPERIMENTAL SETUP: Gynecologic cancer cell panel viability, ATPlite luminescence, 48 h; series mostly up to 57.5 µM
Inconclusive results are not listed. Calls of active or inactive are those of the source. The call rests on the fitted dose curve; in most records, active means well fitted cell-killing curve with a large enough effect; inconclusive means small, poorly fitted or top-dose-only effect, or effect the other way; inactive means flat fitted curve, though single readings scatter.
Pick one: active, inactive

Sample answers from the record:
N#C[C@@H]1C[C@@H]2C[C@@H]2N1C(=O)[C@@H](N)C12CC3CC(CC(O)(C3)C1)C2	inactive
Cc1ccc(C(=O)N2CCN(c3ccc([N+](=O)[O-])cc3)CC2)cc1Cl	inactive
CC1CCN(c2cc(NC(=O)c3ccccc3)ncn2)CC1	inactive
CN(C)CCCCCCNC(=O)c1cccc(-c2cc(O)c3ncccc3c2)c1	inactive
CCN(CC)Cc1cccc(/C=C/c2nc3ccc(F)cc3c(=O)n2-c2ccccc2Cl)n1	active

Could you check what this test reported for `CCOC(=O)c1cccc(CNc2ccc(N(C)C(=O)Nc3ccccc3)cc2)c1` ?
active

Recorded test call requested for `C=C1/C(=C/C=C2\CCC[C@]3(C)[C@@H]([C@H](C)/C=C/C(=O)C4CC4)CC[C@@H]23)C[C@@H](O)C[C@@H]1O`
inactive

Please state the recorded outcome for this compound: `Cc1ccn(-c2cc(Cl)ccc2[C@@H](Oc2cc(-c3ccc(C[C@H](N)C(=O)O)cc3)nc(N)n2)C(F)(F)F)n1`
inactive

Short answer needed: outcome of this test for `CC[C@H]1OC(=O)[C@H](C)[C@@H](O[C@H]2C[C@@](C)(OC)[C@@H](O)[C@H](C)O2)[C@H](C)[C@@H](O[C@@H]2O[C@H](C)C[C@H](N(C)C)[C@H]2O)[C@](C)(O)C[C@@H](C)/C(=N/OCOCCOC)[C@H](C)[C@@H](O)[C@]1(C)O` ?
inactive

What was the test verdict on `C=C(C)C(=O)O[C@H]1[C@H]2C(=C)C(=O)O[C@@H]2C[C@@H](C)/C=C\C(=O)[C@](C)(O)[C@@H]1OC(C)=O` ?
active

How was N#Cc1ccc2c(c1)CCN(CCC1CCC(NC(=O)c3ccnc4ccccc34)CC1)C2 (stereo unspecified) classified in this test?
active

Record lookup: outcome of this test for `COc1cccc(CNC(=O)Nc2nc(-c3ccncc3)cs2)c1` ?
inactive

# outcome recorded in this test, key = `COc1cc2nc(-c3cc(F)ccc3O)nc(N[C@@H]3CNC[C@H]3C(C)(C)O)c2cc1OC`
inactive
